I'd be grateful if you could share measured Selectivity Index (SI) (CC50MTT/EC50pLDH) P. falciparum Gombak A (CQ-resistant) for these entries.
# System: P. falciparum Gombak A (CQ-resistant)
# EXPERIMENT: pLDH antimalarial assay, P. falciparum Gombak A
# Format: cell-based, Plasmodium falciparum
# RUN PARAMETERS: Vero CC50 / Gombak A EC50
Give only the figure.

Find the measured Selectivity Index (SI) (CC50MTT/EC50pLDH) P. falciparum Gombak A (CQ-resistant): item COc1cc(C=CC(=O)C=Cc2cc(OC)c(OC)c(OC)c2)cc(OC)c1OC [MS34C] , target or system P. falciparum Gombak A (CQ-resistant).
15.4

Given the entry O=C(C=Cc1cccc(Cl)c1)C=Cc1cccc(Cl)c1 [MS40B] , what Selectivity Index (SI) (CC50MTT/EC50pLDH) P. falciparum Gombak A (CQ-resistant) was observed with P. falciparum Gombak A (CQ-resistant)?
3.6

Could you share what Selectivity Index (SI) (CC50MTT/EC50pLDH) P. falciparum Gombak A (CQ-resistant) was measured for COc1ccc(OC)c(C=CC(=O)C=Cc2cc(OC)ccc2OC)c1 [MS33C] , tested on P. falciparum Gombak A (CQ-resistant)?
2.9

Request: Selectivity Index (SI) (CC50MTT/EC50pLDH) P. falciparum Gombak A (CQ-resistant), test system P. falciparum Gombak A (CQ-resistant), entry COc1cc(C=C2CCC(=Cc3cc(OC)c(OC)c(OC)c3)C2=O)cc(OC)c1OC
304.9

What Selectivity Index (SI) (CC50MTT/EC50pLDH) P. falciparum Gombak A (CQ-resistant) appears in the records for this molecule with P. falciparum Gombak A (CQ-resistant)? COc1cccc(C=CC(=O)C=Cc2cccc(OC)c2OC)c1OC [MS33A]
1.0

// map O=C1C(=Cc2ccccc2Cl)CCCC1=Cc1ccccc1Cl to recorded Selectivity Index (SI) (CC50MTT/EC50pLDH) P. falciparum Gombak A (CQ-resistant) (system: P. falciparum Gombak A (CQ-resistant))
3.3

Query Selectivity Index (SI) (CC50MTT/EC50pLDH) P. falciparum Gombak A (CQ-resistant) on P. falciparum Gombak A (CQ-resistant) for COc1cccc(OC)c1C=CC(=O)C=Cc1c(OC)cccc1OC [MS33D]
3.0

Values were extracted from paper PMC10943399.
